Measured GI50 values are reported for all entries that follow.
# Test system: SK-MEL-28
# Method notes: NCI tumour cell line growth inhibition, 48 h
Calls of active or inactive are those of the source. Rule as the data show it: active = GI50 up to about 1.1 µM and inactive = higher.

Compound: COc1ccc(-c2cc(-c3ccc(Nc4ccnc5cc(C(F)(F)F)ccc45)cc3)nc(N)c2C#N)cc1
GI50: 32.5 µM (inactive)
--
Compound: CCn1c(SC(C)C(=O)c2c(C)n(C)n(-c3ccccc3)c2=O)nc2ccccc2c1=O (stereo not given)
GI50: > 100 µM (inactive)
--
Compound: COc1ccc(C2S/C(=C\c3cccc(OC)c3)C(=O)N2NC(=O)Cc2ccccc2)cc1 (stereo not given)
GI50: > 100 µM (inactive)
--
Compound: O=C(COc1ccccc1)N(C(=O)N1CCN(c2ccccc2)CC1)S(=O)(=O)c1ccccc1
GI50: > 100 µM (inactive)
--
Compound: CCOC(=O)C1=CCOc2cc(N(C)C)ccc21
GI50: > 100 µM (inactive)
--
Compound: O=C(/C=C/c1ccc(/C=C/C(=O)c2ccc(O)cc2)cc1)c1ccc(O)cc1
GI50: > 100 µM (inactive)
--
Compound: Clc1ccc(Cn2cc(/C=N/n3cnnc3)c3ccccc32)cc1
GI50: > 100 µM (inactive)
--
Compound: [O-][n+]1c2c([n+]([O-])c3ccccc31)CCCCCCCCCC2
GI50: > 100 µM (inactive)
--
Compound: O=P(CN1CCOCC1)(c1ccccc1)c1ccccc1
GI50: > 100 µM (inactive)
--
Compound: COc1ccc(N2C(=O)C3ON(C(C(N)=O)c4ccccc4)C(c4ccc(-c5ccccc5)cc4)C3C2=O)cc1 (stereo not given)
GI50: > 50 µM (inactive)

Hey, just so you know, these numbers are from ChEMBL document CHEMBL1201862.
